Reference source: patent US10988477B2

- assayed.target: intracellular GCN2 (phosphorylation of the GCN2 substrate eIF2α) (Homo sapiens, UniProt Q9P2K8)
- Sequence (Q9P2K8 whole entry): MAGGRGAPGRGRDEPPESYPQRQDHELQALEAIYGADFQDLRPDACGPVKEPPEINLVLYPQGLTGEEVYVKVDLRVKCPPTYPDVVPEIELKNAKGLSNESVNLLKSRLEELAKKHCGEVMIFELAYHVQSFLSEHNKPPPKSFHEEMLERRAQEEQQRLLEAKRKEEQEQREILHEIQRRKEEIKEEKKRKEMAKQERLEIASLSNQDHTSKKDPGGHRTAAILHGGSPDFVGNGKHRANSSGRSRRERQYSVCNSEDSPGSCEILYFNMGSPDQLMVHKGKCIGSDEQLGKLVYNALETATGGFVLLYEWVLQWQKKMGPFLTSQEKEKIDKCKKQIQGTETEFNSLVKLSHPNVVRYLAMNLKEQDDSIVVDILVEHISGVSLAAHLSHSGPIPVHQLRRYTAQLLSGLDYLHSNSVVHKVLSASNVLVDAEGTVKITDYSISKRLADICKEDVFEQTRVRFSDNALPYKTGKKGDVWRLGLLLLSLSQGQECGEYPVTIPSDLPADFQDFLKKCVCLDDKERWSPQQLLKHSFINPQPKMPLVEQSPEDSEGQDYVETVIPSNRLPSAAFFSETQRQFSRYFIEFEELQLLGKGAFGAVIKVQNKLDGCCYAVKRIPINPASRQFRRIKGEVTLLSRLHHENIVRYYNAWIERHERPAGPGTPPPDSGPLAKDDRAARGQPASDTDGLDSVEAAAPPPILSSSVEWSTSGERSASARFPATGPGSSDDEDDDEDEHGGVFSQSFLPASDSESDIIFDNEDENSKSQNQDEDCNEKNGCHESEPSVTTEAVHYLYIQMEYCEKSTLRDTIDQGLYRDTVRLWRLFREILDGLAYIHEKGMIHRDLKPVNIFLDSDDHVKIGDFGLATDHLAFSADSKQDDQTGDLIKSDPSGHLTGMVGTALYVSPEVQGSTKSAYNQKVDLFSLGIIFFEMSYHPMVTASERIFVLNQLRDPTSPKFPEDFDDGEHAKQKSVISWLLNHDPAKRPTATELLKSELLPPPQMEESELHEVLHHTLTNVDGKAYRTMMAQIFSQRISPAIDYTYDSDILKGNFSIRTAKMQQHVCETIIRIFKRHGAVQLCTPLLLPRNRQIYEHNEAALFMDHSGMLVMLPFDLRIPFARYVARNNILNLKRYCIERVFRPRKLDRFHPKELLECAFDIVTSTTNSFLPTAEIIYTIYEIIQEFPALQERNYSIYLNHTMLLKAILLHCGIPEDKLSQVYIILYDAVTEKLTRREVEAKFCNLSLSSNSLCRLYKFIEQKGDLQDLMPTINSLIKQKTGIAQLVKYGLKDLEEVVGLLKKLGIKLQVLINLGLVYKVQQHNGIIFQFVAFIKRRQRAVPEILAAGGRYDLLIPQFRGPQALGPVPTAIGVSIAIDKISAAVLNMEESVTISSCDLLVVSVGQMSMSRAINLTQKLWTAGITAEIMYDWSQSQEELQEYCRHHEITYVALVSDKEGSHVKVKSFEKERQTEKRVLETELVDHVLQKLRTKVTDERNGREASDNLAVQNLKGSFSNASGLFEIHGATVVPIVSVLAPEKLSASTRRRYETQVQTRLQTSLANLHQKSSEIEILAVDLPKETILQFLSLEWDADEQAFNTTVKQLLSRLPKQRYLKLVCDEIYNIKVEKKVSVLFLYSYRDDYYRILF
- experimental.details: GCN2 cellular inhibition assay (AlphaScreen SureFire P-eIF2α Ser51, borrelidin-treated U2OS cells)
- Type: cell-based
- run.parameters: compounds of Formula II; biomarker assay, phosphorylated eIF2α Ser51 in borrelidin-treated U2OS cells
measure.name: IC50

Below: 6 compounds and their reported IC50.
{"columns": ["compound", "IC50"],
 "data": [
  ["C[C@H]1CN(c2cc(-c3cnc4ccc(C(F)F)nn34)ncn2)C[C@@H](CNS(N)(=O)=O)C1(F)F", "< 0.5 µM"],
  ["CS(=O)(=O)N1CCC2(CCCCN2c2cc(-c3cnc4ccc(C(F)F)nn34)ncn2)C1 (centres unmarked)", "> 5 µM"],
  ["CS(=O)(=O)NCC1CN(c2cc(-c3cnc4ccc(C(F)F)nn34)ncn2)c2ccccc21 (centres unmarked)", "> 5 µM"],
  ["CC1(NS(C)(=O)=O)CCCN(c2cc(-c3cnc4ccc(C(F)F)nn34)ncn2)C1 (centres unmarked) [II-445]", "> 5 µM"],
  ["CS(=O)(=O)NCC1CC(N2CC(F)C2)CN(c2cc(-c3cnc4ccc(C(F)F)nn34)ncn2)C1 (centres unmarked) [II-429]", "> 5 µM"],
  ["CS(=O)(=O)NCC1CN(c2cc(-c3cnc4ccc(C(F)F)nn34)ccn2)CCC1(F)F (centres unmarked)", "< 0.5 µM"]
]}

Sure, the documented IC50 for CC1C(CNS(C)(=O)=O)CN(c2cc(-c3cnc4ccc(C(F)F)nn34)ncn2)CC1(F)F (centres unmarked) [II-382] is 0.5 to 5 µM

Sure, the documented IC50 for CS(=O)(=O)NCC12CC1CN(c1cc(-c3cnc4ccc(C(F)F)nn34)ncn1)C2 (centres unmarked) is 0.5 to 5 µM
